The measurements presented in this section are drawn from patent US20260297080A1.

target: CDK2/Cyclin E1 (Homo sapiens); assay: CDK2/Cyclin E1 Biochemical Assay (TR-FRET), 0.060 mM ATP; conditions: 0.15 μM Rb (Ser780)-biotin substrate, pH7.0, 60 min preincubation, 120 min reaction, room temperature
Collected log10 IC50 values appear next to each entry.
readout: log10 IC50 (log10 of the value in nM)

compound="O=C(NCCC(F)(F)F)O[C@@H]1CC[C@H](c2cc(Nc3cc4c(cc3F)S(=O)(=O)NC4)n[nH]2)C1 (single isomer, unassigned) [Example 419a]" observedmeasurement=0.30
compound="CC(C)(C)NC(=O)O[C@H]1CC[C@@H](c2cc(Nc3cc4c(cc3F)NS(=O)(=O)C4)n[nH]2)C1 [Example 404b]" observedmeasurement=1.15
compound="CC(C)NC(=O)O[C@H]1CC[C@@H](c2cc(Nc3ccc4c(c3)CS(=O)(=O)N4C(C)C)n[nH]2)C1 (relative stereo)" observedmeasurement=0.79
compound="CC[C@H](C)NC(=O)O[C@H]1CC[C@@H](c2cc(Nc3cc4c(cc3F)S(=O)(=O)NC4)n[nH]2)C1 (relative stereo)" observedmeasurement=0.04
compound="CCCNC(=O)O[C@H]1CC[C@@H](c2cc(Nc3ccc4c(c3F)C(C)NS4(=O)=O)n[nH]2)C1 (single isomer, unassigned) [Example 53b]" observedmeasurement=0.58
compound="CC1(NC(=O)O[C@H]2CC[C@@H](c3cc(Nc4ccc5c(c4)CS(=O)(=O)N5)n[nH]3)C2)CCOC1 (relative stereo)" observedmeasurement=0.04
compound="CC(C)NC(=O)O[C@H]1CC[C@@H](c2cc(Nc3ccc4c(c3)C(C)NS4(=O)=O)n[nH]2)C1 (single isomer, unassigned) [Example 321a]" observedmeasurement=0.46
compound="[2H]C([2H])([2H])N1c2ccc(Nc3cc([C@@H]4CC[C@H](OC(=O)NC(C)C)C4)[nH]n3)cc2CS1(=O)=O (relative stereo)" observedmeasurement=0.81
compound="COc1c(Nc2cc([C@@H]3CC[C@H](OC(=O)NC(C)C)C3)[nH]n2)ccc2c1CNS2(=O)=O (relative stereo)" observedmeasurement=2.01
compound="CC(C)NC(=O)O[C@H]1CC[C@@H](c2cc(Nc3ccc4c(c3F)C(=O)NS4(=O)=O)n[nH]2)C1 (relative stereo)" observedmeasurement=0.76
compound="CN1Cc2c(ccc(Nc3cc([C@@H]4CC[C@H](OC(=O)NC5(C)COC5)C4)[nH]n3)c2F)S1(=O)=O (single isomer, unassigned) [Example 352a]" observedmeasurement=1.15
compound="[2H]C([2H])([2H])N1Cc2c(ccc(Nc3cc([C@H]4CC[C@@H](OC(=O)NC5(C)CC5)C4)[nH]n3)c2F)S1(=O)=O (racemic)" observedmeasurement=0.20
compound="CC(C)NC(=O)O[C@H]1CC[C@@H](c2cc(Nc3ccc4c(c3F)C(C)NS4(=O)=O)n[nH]2)C1 (single isomer, unassigned) [Example 51d]" observedmeasurement=0.94
compound="CCCNC(=O)O[C@H]1CC[C@@H](c2cc(Nc3ccc4c(c3Cl)CNS4(=O)=O)n[nH]2)C1 (racemic) [Example 39]" observedmeasurement=1.18
compound="CC(C)NC(=O)O[C@H]1CC[C@@H](c2cc(Nc3ccc4c(c3F)CN(C)S4(=O)=O)n[nH]2)C1 (single isomer, unassigned) [Example 121b]" observedmeasurement=0.52
compound="CC1(NC(=O)O[C@H]2CC[C@@H](c3cc(Nc4ccc5c(c4F)CS(=O)(=O)N5CCO)n[nH]3)C2)COC1 (relative stereo)" observedmeasurement=0.40
compound="CC(C)NC(=O)O[C@@H]1CC[C@H](c2cc(Nc3ccc4c(c3F)CS(=O)(=O)N4)n[nH]2)C1 (single isomer, unassigned) [Example 251a]" observedmeasurement=0.04
compound="CC(C)NC(=O)O[C@H]1CC[C@@H](c2cc(Nc3ccc4c(c3)CS(=O)(=O)N4C(C)C3COC3)n[nH]2)C1 (relative stereo)" observedmeasurement=1.20
compound="CC(C)NC(=O)O[C@H]1CC[C@@H](c2cc(Nc3ccc4c(c3F)S(=O)(=O)NC4)n[nH]2)C1 (single isomer, unassigned) [Example 186b]" observedmeasurement=0.23
compound="CC1NS(=O)(=O)c2ccc(Nc3cc([C@@H]4CC[C@H](OC(=O)NC5(C)CC5)C4)[nH]n3)c(F)c21 (single isomer, unassigned) [Example 52c]" observedmeasurement=0.28
compound="CC(C)NC(=O)O[C@H]1CC[C@@H](c2cc(Nc3ccc4c(c3F)CN(CC(C)(C)O)S4(=O)=O)n[nH]2)C1 (relative stereo)" observedmeasurement=1.00
compound="CC1(NC(=O)O[C@H]2CC[C@@H](c3cc(Nc4ccc5c(c4Cl)CNS5(=O)=O)n[nH]3)C2)CC1 (single isomer, unassigned) [Example 40b]" observedmeasurement=0.49
compound="CC(C)NC(=O)O[C@H]1CC[C@@H](c2cc(Nc3ccc4c(c3F)CN(CCO)S4(=O)=O)n[nH]2)C1 (single isomer, unassigned) [Example 125b]" observedmeasurement=0.69
